molecular target: UniProtKB Q7Z2W7; test: Assay on TRPM8 modulators (Ca2+-sensitive dye, HEK293-TRPM8 test cells, EC50 determination); type: cell-based; settings: Table B, structure type 2; assay according to reference example 3
Sequence (Q7Z2W7 whole entry): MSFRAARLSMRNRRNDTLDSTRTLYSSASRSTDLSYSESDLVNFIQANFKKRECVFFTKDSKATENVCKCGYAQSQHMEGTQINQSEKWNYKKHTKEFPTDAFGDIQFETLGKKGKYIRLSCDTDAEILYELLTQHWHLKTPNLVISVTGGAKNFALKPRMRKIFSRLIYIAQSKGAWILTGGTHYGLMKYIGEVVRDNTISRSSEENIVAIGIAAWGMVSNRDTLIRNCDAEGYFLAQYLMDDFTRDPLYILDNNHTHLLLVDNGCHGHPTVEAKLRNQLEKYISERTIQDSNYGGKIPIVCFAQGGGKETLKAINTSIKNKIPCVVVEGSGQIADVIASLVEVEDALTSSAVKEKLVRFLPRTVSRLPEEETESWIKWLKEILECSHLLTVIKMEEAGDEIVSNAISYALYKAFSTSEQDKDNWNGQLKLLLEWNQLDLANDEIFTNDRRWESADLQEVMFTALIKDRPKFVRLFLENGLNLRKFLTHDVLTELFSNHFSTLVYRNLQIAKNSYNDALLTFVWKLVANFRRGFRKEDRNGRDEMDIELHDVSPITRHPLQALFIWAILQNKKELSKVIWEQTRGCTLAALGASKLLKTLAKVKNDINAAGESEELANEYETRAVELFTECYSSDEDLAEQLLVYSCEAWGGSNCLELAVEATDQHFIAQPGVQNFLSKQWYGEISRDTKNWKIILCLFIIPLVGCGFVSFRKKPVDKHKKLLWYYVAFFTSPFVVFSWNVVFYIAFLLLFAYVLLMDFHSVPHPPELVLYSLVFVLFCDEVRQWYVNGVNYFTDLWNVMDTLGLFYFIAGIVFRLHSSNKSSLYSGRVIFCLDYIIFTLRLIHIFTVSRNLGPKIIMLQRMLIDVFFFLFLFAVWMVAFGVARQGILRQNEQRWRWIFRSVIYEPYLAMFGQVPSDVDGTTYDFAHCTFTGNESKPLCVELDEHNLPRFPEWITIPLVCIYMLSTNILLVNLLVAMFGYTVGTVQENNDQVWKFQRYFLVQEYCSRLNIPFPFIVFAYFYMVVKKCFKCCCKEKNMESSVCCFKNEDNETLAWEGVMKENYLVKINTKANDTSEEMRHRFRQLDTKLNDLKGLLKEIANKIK
pEC50: −log10 of the molar value.
measuredMetric: pEC50

> print(dat)
                                   molecule  readoutnumber
1  COc1cnc(-c2ccccn2)nc1NC(C)C [Compound 2-20]           6.05
2             COc1cnc(-c2ccccc2)nc1N1CCOCC1           4.93
3              COc1cnc(-c2ccccn2)nc1NC1CCC1           6.10
